Procedure text: in vivo
Measurement conditions: beagle, dog, po, 5 mg/kg
Description: Cmax in Beagle dog at 5 mg/kg, po by LC-MS/MS analysis
Property measured: Cmax (ng/mL)
One number for each entry, in ng/mL.

Query Cmax for CN(c1ncnc2[nH]ccc12)[C@@H]1CCN(C(=O)CC#N)C1
1900

----------
Procedure text: in vivo
Measurement conditions: ICR, mouse, iv, 5 mg/kg
Description: AUC (0 to t) in ICR mouse at 5 mg/kg, iv by LC-MS/MS analysis
Property measured: AUC(0-t) (ng·h/mL)
Give bare numbers, in ng·h/mL.

Query AUC(0-t) for CN(c1ncnc2[nH]ccc12)[C@@H]1CCN(C(=O)CC#N)C1
510

----------
Assayed target: Tyrosine-protein kinase JAK1 (Homo sapiens)
Sequence (P23458 whole entry): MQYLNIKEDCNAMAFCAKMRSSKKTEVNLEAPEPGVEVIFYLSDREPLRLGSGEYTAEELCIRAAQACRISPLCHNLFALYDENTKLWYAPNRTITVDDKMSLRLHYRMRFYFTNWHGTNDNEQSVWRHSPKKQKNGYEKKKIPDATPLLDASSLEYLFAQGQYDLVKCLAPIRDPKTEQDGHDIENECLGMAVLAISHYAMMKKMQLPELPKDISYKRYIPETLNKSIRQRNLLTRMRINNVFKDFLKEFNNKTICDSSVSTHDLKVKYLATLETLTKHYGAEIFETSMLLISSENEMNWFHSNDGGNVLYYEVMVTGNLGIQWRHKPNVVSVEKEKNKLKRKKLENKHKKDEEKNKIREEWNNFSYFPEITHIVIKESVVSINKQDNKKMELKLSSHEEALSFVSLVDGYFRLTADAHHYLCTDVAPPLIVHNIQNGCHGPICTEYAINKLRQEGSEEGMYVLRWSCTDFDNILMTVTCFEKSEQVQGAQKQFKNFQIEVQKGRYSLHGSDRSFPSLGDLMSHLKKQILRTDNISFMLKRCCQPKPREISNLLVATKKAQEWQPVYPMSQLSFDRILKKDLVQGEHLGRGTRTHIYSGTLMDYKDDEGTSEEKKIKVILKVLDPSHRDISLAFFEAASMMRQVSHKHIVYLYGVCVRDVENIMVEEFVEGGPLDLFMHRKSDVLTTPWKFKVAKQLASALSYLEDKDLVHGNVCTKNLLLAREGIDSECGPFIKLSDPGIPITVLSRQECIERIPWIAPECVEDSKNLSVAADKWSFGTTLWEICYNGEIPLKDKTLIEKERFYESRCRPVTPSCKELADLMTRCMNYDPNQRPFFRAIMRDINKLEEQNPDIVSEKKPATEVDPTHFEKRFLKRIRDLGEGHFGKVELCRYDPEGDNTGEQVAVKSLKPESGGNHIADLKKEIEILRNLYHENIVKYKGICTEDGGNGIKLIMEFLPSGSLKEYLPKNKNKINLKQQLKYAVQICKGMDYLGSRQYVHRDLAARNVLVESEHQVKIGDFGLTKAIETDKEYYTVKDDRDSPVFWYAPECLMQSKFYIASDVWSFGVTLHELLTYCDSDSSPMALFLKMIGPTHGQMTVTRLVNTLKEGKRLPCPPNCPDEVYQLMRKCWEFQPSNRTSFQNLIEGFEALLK
# IC50 binned as zone 1 (below 20 nM), zone 2 (20 nM to below 50 nM), zone 3 (50 nM or more)

Previously resolved entries follow.
CN(c1ncnc2[nH]ccc12)[C@@H]1CCN(C(=O)Nc2ccccc2)C1: zone 2
CN(c1ncnc2[nH]ccc12)[C@@H]1CCN(S(=O)(=O)c2ccccc2F)C1: zone 2
CC(C)CC(=O)N1CC[C@@H](N(C)c2ncnc3[nH]ccc23)C1: zone 3
CC(C)COC(=O)N1CC[C@@H](N(C)c2ncnc3[nH]ccc23)C1: zone 3
CN(c1ncnc2[nH]ccc12)[C@@H]1CCN(CCC#N)C1: zone 3

// switching to the query compound
Category lookup for the compound CN(c1ncnc2[nH]ccc12)[C@@H]1CCN(S(=O)(=O)c2ccc(C(F)(F)F)cc2)C1
zone 1

----------
Procedure text: in vivo
Measurement conditions: Sprague-Dawley, rat, iv, 5 mg/kg
Description: Half life in Sprague-Dawley rat at 5 mg/kg, iv by LC-MS/MS analysis
Property measured: half-life (min)
Numbers only, in min.

Query half-life for CN(c1ncnc2[nH]ccc12)[C@@H]1CCN(C(=O)CC#N)C1
42

----------
Procedure text: in vivo
Measurement conditions: ICR, mouse, iv, 5 mg/kg
Description: AUC (0 to infinity) in ICR mouse at 5 mg/kg, iv by LC-MS/MS analysis
Property measured: AUC(0-inf) (ng·h/mL)
Give bare numbers, in ng·h/mL.

Query AUC(0-inf) for CN(c1ncnc2[nH]ccc12)[C@@H]1CCN(C(=O)CC#N)C1
680

----------
Procedure text: in vivo
Measurement conditions: beagle, dog, iv, 3 mg/kg
Description: MRT in Beagle dog at 3 mg/kg, iv by LC-MS/MS analysis
Property measured: MRT (h)
Numbers only, in h.

Query MRT for CN(c1ncnc2[nH]ccc12)[C@@H]1CCN(C(=O)CC#N)C1
2.4

----------
Procedure text: in vivo
Measurement conditions: ICR, mouse, iv, 5 mg/kg
Description: Half life in ICR mouse at 5 mg/kg, iv by LC-MS/MS analysis
Property measured: half-life (min)
Give bare numbers, in min.

Query half-life for CN(c1ncnc2[nH]ccc12)[C@@H]1CCN(C(=O)CC#N)C1
54

----------
Assayed target: CYP2C9 (Homo sapiens, UniProt P11712)
Sequence (P11712 whole entry): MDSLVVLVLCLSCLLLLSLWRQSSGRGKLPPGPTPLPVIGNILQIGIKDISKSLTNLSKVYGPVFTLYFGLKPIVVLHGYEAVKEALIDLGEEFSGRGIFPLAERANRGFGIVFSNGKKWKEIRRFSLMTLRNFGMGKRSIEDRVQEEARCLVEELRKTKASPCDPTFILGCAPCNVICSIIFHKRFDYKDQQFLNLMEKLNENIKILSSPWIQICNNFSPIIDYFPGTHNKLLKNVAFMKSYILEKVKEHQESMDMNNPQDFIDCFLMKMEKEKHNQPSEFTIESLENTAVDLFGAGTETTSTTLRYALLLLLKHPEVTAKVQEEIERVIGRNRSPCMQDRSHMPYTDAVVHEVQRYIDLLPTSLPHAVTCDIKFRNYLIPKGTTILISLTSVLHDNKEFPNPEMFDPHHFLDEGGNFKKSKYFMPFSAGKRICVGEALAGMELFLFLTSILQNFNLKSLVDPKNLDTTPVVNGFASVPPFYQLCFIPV
Procedure text: in vitro
Description: Inhibition of CYP2C9 (unknown origin) assessed as residual activity at 10 uM relative to control
Property measured: activity at 10 µM

Query activity at 10 µM for CN(c1ncnc2[nH]ccc12)[C@@H]1CCN(C(=O)CC#N)C1
> 100%

----------
Procedure text: in vitro
Measurement conditions: mouse, microsomes
Description: Metabolic stability in mouse liver microsomes assessed as parent compound remaining after 30 mins
Property measured: remaining at 0.5 h

For orientation, consider the following solved cases.
CN(c1ncnc2[nH]ccc12)[C@@H]1CCN(S(=O)(=O)c2ccc(C(F)(F)F)cc2)C1: 8.4%
CN(c1ncnc2[nH]ccc12)[C@@H]1CCN(C(=O)CC#N)C1: > 100%
CN(c1ncnc2[nH]ccc12)[C@@H]1CCN(S(=O)(=O)c2cccc([N+](=O)[O-])c2)C1: 3.1%

Consider the additional molecule presented here.
Query remaining at 0.5 h for CN(c1ncnc2[nH]ccc12)[C@@H]1CCN(S(=O)(=O)c2cccc(C#N)c2)C1
10%

----------
Procedure text: in vivo
Measurement conditions: beagle, dog, iv, 3 mg/kg
Description: Half life in Beagle dog at 3 mg/kg, iv by LC-MS/MS analysis
Property measured: half-life
Include the unit right after the number.

Query half-life for CN(c1ncnc2[nH]ccc12)[C@@H]1CCN(C(=O)CC#N)C1
1.6 h
